Molecular target: rabbit polyclonal anti-DNP IgG
Assay: Fluorescence polarization binding of DNP and NBD derivatives to anti-DNP IgG
Conditions: apparent affinity, PBS pH 7.4, read-out: dissociation constants (Kd)
Readout Kind: pKd
// pKd: -log10(molar conc.)

Q. Please give the measured pKd for this compound: O=C(CCCCCNc1ccc([N+](=O)[O-])cc1[N+](=O)[O-])NCCCNC(=S)Nc1ccc(-c2c3ccc(=O)cc-3oc3cc(O)ccc23)c(C(=O)O)c1 [compound 27]
A. 7.64
